Values were extracted from the DeepSol protein solubility set.

Assay: soluble on expression in E. coli; label from the status in PepcDB or PDB records
MEASURED_ATTRIBUTE: soluble on expression in E. coli

Solved entries:
| SEQ_TEXT | soluble on expression in E. coli |
| --- | --- |
| MDWGMQSRLSWIFNPKTGKTVMLAFDHGYFQGPTIGLERIDINIAPLFEHADVLMCTRGILRSVVPPATNKPVVLRASGANSILAELSNEAVALSMDDAVRLNSCAVAAQVYIGSEYEHQSIKNIIQLVDAGMKVGMPTMAVTGVGKDMVRDQRYFSLATRIAAEMGAQIIKTYYVEKGFERIVAGCPVPIVIAGGKKLPERETLEMCWQAIDQGASGVDMGRNIFQSDHPVAMMKAVQAVVHHNETADRAYELYLSEKQ | not soluble |
| YHPVFSAKIEQRLIERFGVRRALIALDQPNDEAQRQQVAGLVSNYLTSTLKNGMVVTVGQGRNVSAVAHHVGVITPRDCKFVCSIGGIHPRGGMFNADHICRQLAKKYGGSSETLYAPAYAENPEQKRVFMQNSTVKQTLDLARKADIALVGIGDMSENSYMVDLGWFTPEEVVQSRLNQGVVGDFAGHDFFDVHGRIANTVMNDRVIGLGIDEFRPIAEVIAIAAENSKPLALLGALRTGAIDVIATSVSNALTVLNLDEQMQTALSAS | not soluble |
| GPGSMDPLCSPSAVSINGTPQTSVVNTSSTTSVVASPARPKLNRSVKFDPTIGGPLHSGDLSLDTSFVHGAGGDADAREHYGRRGRADEAATDSPLYSGDVLHEHEELLPFQLTREDVAAAFEFLDVNGSGLLTMGNLKHRLSAFYPHLTSKEYKFLVEDPSGSTGGGGTASSAARSAVAARHGGAADGCGGSTGGPTTSSLAQAASSARPSNLSFDDGGDAVHANGALSGEGVASGVGGSNATSARAGLDVDQLWDLINSFQQLQRTFGAAQAGQAEGQNAQNTRSAFNSSFDAYLVGTHGTQGIRSADIGFDAVGEAFRIYDPHNTHYVEEEVLSCIMARVGFGELTEEELAVLVSTADFDGDGRISLEDFRRLVSMKGRFEK | soluble |
| SWSGLLPPGLNESDAESNSEDEATLENSGLNLQEDKEDESIRKTEIIDFSTDEPKTETESNVNAYEECPSGIPIDMWNKFQELHKKHSEQKSTTSRFRGKRRKRSRKDKLKNEKELHSEPSSNETQWKELTQYFGVNDRFDPPVKRKKVEKSGLEKRIDQAVEEWNIEKAEELSNQLATRELGVKIAKAVACHNFVKAKKEVENSQAARKKKKLAWGFEAKKRWETKSNMGYM | soluble |
| MASKYAVKLQTDFDNPKWIKRHKFMFDYLDINGNGQITLDEIVSKASDDICKNLGATPAQTQRHQDCVEAFFRGCGLEYGKETKFPEFLEGWKNLANADLAKWARNEPTLIREWGDAVFDIFDKDGSGTITLDEWKAYGRISGISPSEEDCEKTFQHCDLDNSGELDVDEMTRQHLGFWYTLDPEADGLYGNGVP | soluble |

Sample MNLVKLLANNWQPIAIIALVGTGLAVSHHQGYKSAFAKQQAVIDKMERDKAQALLLSAQNYARELELARAEAKKYEVKAHAVGMALAKKQAEVSRLKTERDLCKIPFPPDSRNPNTGFRLFSPQIPPNFTQIPP — what was its soluble on expression in E. coli?
not soluble

Sample MGSDKIHHHHHHMISNEQYDYLRAHPTFERLTRDSFDQLAKHIRFRKIPKGQIFFYAEDPRDYLFVLYKGYARIEQYDETDSFTYLDYIRQGGAFPFGDMFQDKPYHYTAIAITDLEYFIVPMVLFETLSKINPSQMVYICQKLSKVLRFQELRLRNAMRSKASDRVVQALALLYWDMCQRDQFATLPFEIHIQEISRLAATTRETVSHVLKQLKQDGKIAYSHKQLTYLDIDYFLENLTETH — what was its soluble on expression in E. coli?
not soluble

Sample MRISTLQGQYQCIIIDPPWFYRLRSKDKTHRNRIPYQPMRTPEILALPIPDLCDAGGCVLWLWFTNNHMIEAAQCLQRWGFDLKTILTWGKVTKDGTKTHLGVGHWLRNSTEHCALAVRGNVKAFAGQTSTTGGTPTLTNQSTILHSPRREHSRKPPEFFELVEKLCPDMTKLEIFARESRDGWDCWGDQADLFDASDEEILVKAEKVLLLEHHHHHH — what was its soluble on expression in E. coli?
not soluble

Sample MPSTNLTKRDWEKDHVYLVQFPRAGCIPSPSPYAFKVETFLRVADIPYTNINNEFKKMSARGQIPFIELNGRQHADSTIIIDNLTEHFHKSDLEDLSASDKAIARAFFALLEHHLCWVSLYSRGQDFGWLATDTGFGRLLTGIKGFAFKNFIVKSFTKKVRGRAAAQGMGTFSREEVLDQAKKDLDAISTQLGDKPYLFGSSIKTIDVTAFAHLAELIYTPQFSPEIRAYIDEKVPNVMEYVIRIKEKYWPDWEETTNTMNMATVWKKA — what was its soluble on expression in E. coli?
not soluble

Sample MATFKDFRNNVKPNWCPGCGDFSVQAAIQKAAANIGLEPEEVAIITGIGCSGRLSGYINSYGVHSIHGRALPLAQGVKMANKDLTVIASGGDGDGYAIGMGHTIHALRRNMNMTYIVMDNQIYGLTKGQTSPSSAVGFVTKTTPKGNIEKNVAPLELALSSGATFVAQGFSSDIKGLTKLIEDAINHDGFSFVNVFSPCVTYNKINTYDWFKEHLTSVDDIENYDSTDKQLATKTVIEHESLVTGIVYQDKETPSYESQIKELDDTPLAKRDIKITEDTFNALTEQFI — what was its soluble on expression in E. coli?
not soluble

Sample MSIAIIIGTHGAAAEQLLKTAEMILGEQSNVAYIDFVPGENAETLIEKYNDRLTGLDTSKGVLFLVDTWGGSPFNAASRIAIDKENYEVVTGVNIPMLAETFMARDDEPSFAELVAVAVETGREGVKALKAPDVKSDKPETQPAAPVPTAKAPAVALGPNDHMKIGLARIDDRLIHGQVATRWTKETNVNRIIVVSDEVAADKMRKTLLTQVAPPGVTAHVVDVEKAIRVYNNPKYANDRVMLLFTNPTDVVRLVEGGVDIKSVNIGGMAFRQGKTQVNNAVSIDEKDIEAFNKLNARGIELEVRKVSSDSRLKMMDLISKLNK — what was its soluble on expression in E. coli?
not soluble

Sample MQEISFRNDILPLKDKLFRLALRITLDRAEAEDVVQDTMIRVWNKRDEWSQFESVEAYCLIVAKNLAIDRSQKKEAQNVEITPEMEEEPDANSPYDQLVHDEKMNIINRLVNELPEKQRLIMQLRDIEGESYKKIATLLNLTEEQVKVNLFRARQKVKQRYLEIDEYGL — what was its soluble on expression in E. coli?
not soluble
